system: HEK-293T; assay: Multiplex assay against HEK293T; assay type: toxicity, cell-based; conditions: human, 12 h, 1 µM, compound concentration 1 uM, replicate 1
Use Population Apoptotic (%) to assign classes; range list: bucket A = under 40%, bucket B = from 40% up to 50%, bucket C = 50% and over

> print(dat)
                                   molecule       cat
1  C=CC(=O)Nc1cccc(C(=O)Nc2ccc(Nc3cc(-c4[nH]c(SC)nc4C)ccn3)cc2)c1  bucket B

The entry to classify is C[C@@]1(C(=O)Nc2ccc(F)nc2)CCCN1c1nc(Nc2cc(C3CC3)n[nH]2)c2cccn2n1 ; which class holds it?
bucket A

Band for the recorded Population Apoptotic (%) of Cc1nc(-c2ccc(-c3ccc(C(=O)N4CCc5cc6c(cc54)C4(CCN(C)CC4)CO6)cc3)c(C)c2)no1 ?
bucket C

Please classify: COc1cc(-n2cnc3cc(-c4ccc(Cl)cc4)sc3c2=O)ccc1OCCN1CCCC1
bucket C

Exam item: assign CN1CCC[C@@H]1CCO[C@](C)(c1ccccc1)c1ccc(Cl)cc1.O=C(O)/C=C/C(=O)O [CLEMASTINE FUMARATE] to the correct category.
bucket C
